Below, each entry is listed alongside its reported tissue uptake at 1 h.
experimentDescription: Biodistribution in Jurkat tumor-bearing CB-17 SCID mice
Format: in vivo
measurementContext: female, CB-17 SCID, mouse, in vivo, iv, total radioactivity, % iD/g Stomach
Non-standard residues stand in square brackets, D forms with d. Residues, ends and D or L forms follow the SMILES beside them. Groups on a side chain read outwards from the residue. *: point of attachment. DOTA = O=C(O)CN1CCN(CC(=O)O)CCN(CC(=O)*)CCN(CC(=O)O)CC1; dTyr(3-I) = N[C@H](Cc1ccc(O)c(I)c1)C(=O)O; 2Nal = N[C@@H](Cc1ccc2ccccc2c1)C(=O)O; dNMeOrn = CN[C@H](CCCN)C(=O)O; HYNIC = NNc1ccc(C(=O)*)cn1; 4Amb = NCc1ccc(C(=O)O)cc1; 4Abz = Nc1ccc(C(=O)O)cc1; dDap = NC[C@@H](N)C(=O)O
Response body: numeric value in %ID/g, unit text excluded.

Item under review: C[C@@H](NC(=O)[C@@H](CCCNC(=N)N)NC(=O)[C@@H](CN)NC(=O)CN1CCN(CC(=O)O)CCN(CC(=O)O)CCN(CC(=O)O)CC1)C(=O)Nc1ccc(C(=O)NCCC[C@@H]2C(=O)N[C@@H](CCCNC(=N)N)C(=O)N[C@@H](Cc3ccc4ccccc4c3)C(=O)NCC(=O)N[C@H](Cc3ccc(O)cc3)C(=O)N2C)cc1 [CXCR4-DOTA-3 [Lu]] (cyclo([dY][dNMeOrn]([4Abz-dA-dR-dDap-DOTA])R[2Nal]G)) . Reported tissue uptake at 1 h?
0.94

Try the compound C[C@@H](NC(=O)[C@@H](CCCNC(=N)N)NC(=O)[C@@H](CN)NC(=O)CN1CCN(CC(=O)O)CCN(CC(=O)O)CCN(CC(=O)O)CC1)C(=O)NCc1ccc(C(=O)NCCC[C@@H]2C(=O)N[C@@H](CCCNC(=N)N)C(=O)N[C@@H](Cc3ccc4ccccc4c3)C(=O)NCC(=O)N[C@H](Cc3ccc(O)c(I)c3)C(=O)N2C)cc1 [CXCR4-DOTA-2 [Lu]] (cyclo([dTyr(3-I)][dNMeOrn]([4Amb-dA-dR-dDap-DOTA])R[2Nal]G))
1.41

What would you report for C[C@@H](NC(=O)[C@@H](CCCNC(=N)N)NC(=O)[C@@H](CN)NC(=O)c1ccc(NN)nc1)C(=O)Nc1ccc(C(=O)NCCC[C@@H]2C(=O)N[C@@H](CCCNC(=N)N)C(=O)N[C@@H](Cc3ccc4ccccc4c3)C(=O)NCC(=O)N[C@H](Cc3ccc(O)cc3)C(=O)N2C)cc1 [Tc-CXCR4-13] (cyclo([dY][dNMeOrn]([4Abz-dA-dR-dDap-HYNIC])R[2Nal]G)) ?
1.98

Let us now turn to CN1C(=O)[C@@H](Cc2ccc(O)cc2)NC(=O)CNC(=O)[C@H](Cc2ccc3ccccc3c2)NC(=O)[C@H](CCCNC(=N)N)NC(=O)[C@H]1CCCNC(=O)c1ccc(CNC(=O)CN2CCN(CC(=O)O)CCN(CC(=O)O)CCN(CC(=O)O)CC2)cc1 [^68Ga-Pentixafor, metal not drawn, reference compound] (cyclo([dY][dNMeOrn]([4Amb-DOTA])R[2Nal]G))
0.51

====

experimentDescription: Biodistribution in Jurkat tumor-bearing CB-17 SCID mice
Type: in vivo
measurementContext: female, CB-17 SCID, mouse, in vivo, iv, total radioactivity, % iD/g Liver
Non-standard residues stand in square brackets, D forms with d. Residues, ends and D or L forms follow the SMILES beside them. Groups on a side chain read outwards from the residue. *: point of attachment. DOTA = O=C(O)CN1CCN(CC(=O)O)CCN(CC(=O)*)CCN(CC(=O)O)CC1; dTyr(3-I) = N[C@H](Cc1ccc(O)c(I)c1)C(=O)O; 2Nal = N[C@@H](Cc1ccc2ccccc2c1)C(=O)O; dNMeOrn = CN[C@H](CCCN)C(=O)O; 4Abz = Nc1ccc(C(=O)O)cc1; dDap = NC[C@@H](N)C(=O)O
# tissue uptake at 6 h values compiled below
// note: answer is a bare numeric in %ID/g

C[C@@H](NC(=O)[C@@H](CCCNC(=N)N)NC(=O)[C@@H](CN)NC(=O)CN1CCN(CC(=O)O)CCN(CC(=O)O)CCN(CC(=O)O)CC1)C(=O)Nc1ccc(C(=O)NCCC[C@@H]2C(=O)N[C@@H](CCCNC(=N)N)C(=O)N[C@@H](Cc3ccc4ccccc4c3)C(=O)NCC(=O)N[C@H](Cc3ccc(O)c(I)c3)C(=O)N2C)cc1 [CXCR4-DOTA-4 [Lu]] (cyclo([dTyr(3-I)][dNMeOrn]([4Abz-dA-dR-dDap-DOTA])R[2Nal]G))	20.5

# ---- query compound ----
Fill blank: measured tissue uptake at 6 h of the compound C[C@@H](NC(=O)[C@@H](CCCNC(=N)N)NC(=O)[C@@H](CN)NC(=O)CN1CCN(CC(=O)O)CCN(CC(=O)O)CCN(CC(=O)O)CC1)C(=O)Nc1ccc(C(=O)NCCC[C@@H]2C(=O)N[C@@H](CCCNC(=N)N)C(=O)N[C@@H](Cc3ccc4ccccc4c3)C(=O)NCC(=O)N[C@H](Cc3ccc(O)cc3)C(=O)N2C)cc1 [CXCR4-DOTA-3 [Lu]] (cyclo([dY][dNMeOrn]([4Abz-dA-dR-dDap-DOTA])R[2Nal]G)) is ____.
9.43

====

Tested on: CXCR4-expressing Chem_1 cells
experimentDescription: Determination of internalization, dual tracer with 125I-Fc-131
Assay type: cell-based
measurementContext: 120 min
Non-standard residues stand in square brackets, D forms with d. Residues, ends and D or L forms follow the SMILES beside them. Groups on a side chain read outwards from the residue. *: point of attachment. DOTA = O=C(O)CN1CCN(CC(=O)O)CCN(CC(=O)*)CCN(CC(=O)O)CC1; dTyr(3-I) = N[C@H](Cc1ccc(O)c(I)c1)C(=O)O; 2Nal = N[C@@H](Cc1ccc2ccccc2c1)C(=O)O; dCit = NC(=O)NCCC[C@@H](N)C(=O)O; dNMeOrn = CN[C@H](CCCN)C(=O)O; 4Amb = NCc1ccc(C(=O)O)cc1; 4Abz = Nc1ccc(C(=O)O)cc1; X1 = NCCNCC(CNCCN)C(=O)*; dDap = NC[C@@H](N)C(=O)O
Rule for this label: yes means Internalized in relation to 125I-Fc-131 [%] is less than 500%; no means Internalized in relation to 125I-Fc-131 [%] is at least 500%.

Please review the entries below; each comes with its answer.
C[C@@H](NC(=O)[C@@H](CCCNC(=N)N)NC(=O)[C@@H](CN)NC(=O)CN1CCN(CC(=O)O)CCN(CC(=O)O)CCN(CC(=O)O)CC1)C(=O)Nc1ccc(C(=O)NCCC[C@@H]2C(=O)N[C@@H](CCCNC(=N)N)C(=O)N[C@@H](Cc3ccc4ccccc4c3)C(=O)NCC(=O)N[C@H](Cc3ccc(O)cc3)C(=O)N2C)cc1 [CXCR4-DOTA-3 [Lu]] (cyclo([dY][dNMeOrn]([4Abz-dA-dR-dDap-DOTA])R[2Nal]G))	yes
C[C@@H](NC(=O)[C@@H](CCCNC(=N)N)NC(=O)[C@@H](CN)NC(=O)CN1CCN(CC(=O)O)CCN(CC(=O)O)CCN(CC(=O)O)CC1)C(=O)NCc1ccc(C(=O)NCCC[C@@H]2C(=O)N[C@@H](CCCNC(=N)N)C(=O)N[C@@H](Cc3ccc4ccccc4c3)C(=O)NCC(=O)N[C@H](Cc3ccc(O)c(I)c3)C(=O)N2C)cc1 [CXCR4-DOTA-2 [Lu]] (cyclo([dTyr(3-I)][dNMeOrn]([4Amb-dA-dR-dDap-DOTA])R[2Nal]G))	yes
C[C@@H](NC(=O)[C@@H](CCCNC(=N)N)NC(=O)[C@@H](CN)NC(=O)C(CNCCN)CNCCN)C(=O)Nc1ccc(C(=O)NCCC[C@@H]2C(=O)N[C@@H](CCCNC(=N)N)C(=O)N[C@@H](Cc3ccc4ccccc4c3)C(=O)NCC(=O)N[C@H](Cc3ccc(O)cc3)C(=O)N2C)cc1 [Tc-CXCR4-14] (cyclo([dY][dNMeOrn]([4Abz-dA-dR-dDap-X1])R[2Nal]G))	no

Problem: For the molecule C[C@@H](NC(=O)[C@@H](CCCNC(N)=O)NC(=O)[C@@H](CN)NC(=O)CN1CCN(CC(=O)O)CCN(CC(=O)O)CCN(CC(=O)O)CC1)C(=O)Nc1ccc(C(=O)NCCC[C@@H]2C(=O)N[C@@H](CCCNC(=N)N)C(=O)N[C@@H](Cc3ccc4ccccc4c3)C(=O)NCC(=O)N[C@H](Cc3ccc(O)cc3)C(=O)N2C)cc1 [CXCR4-DOTA-5 [Lu]] (cyclo([dY][dNMeOrn]([4Abz-dA-dCit-dDap-DOTA])R[2Nal]G)) , is Internalized in relation to 125I-Fc-131 [%] under 500%?
yes

What about this molecule? C[C@@H](NC(=O)[C@@H](CCCNC(=N)N)NC(=O)[C@@H](CN)NC(=O)CN1CCN(CC(=O)O)CCN(CC(=O)O)CCN(CC(=O)O)CC1)C(=O)NCc1ccc(C(=O)NCCC[C@@H]2C(=O)N[C@@H](CCCNC(=N)N)C(=O)N[C@@H](Cc3ccc4ccccc4c3)C(=O)NCC(=O)N[C@H](Cc3ccc(O)cc3)C(=O)N2C)cc1 [CXCR4-DOTA-1 [Lu]] (cyclo([dY][dNMeOrn]([4Amb-dA-dR-dDap-DOTA])R[2Nal]G))
yes

Okay, and C[C@@H](NC(=O)[C@@H](CCCNC(=N)N)NC(=O)[C@@H](CN)NC(=O)CN1CCN(CC(=O)O)CCN(CC(=O)O)CCN(CC(=O)O)CC1)C(=O)Nc1ccc(C(=O)NCCC[C@@H]2C(=O)N[C@@H](CCCNC(=N)N)C(=O)N[C@@H](Cc3ccc4ccccc4c3)C(=O)NCC(=O)N[C@H](Cc3ccc(O)c(I)c3)C(=O)N2C)cc1 [CXCR4-DOTA-4 [Lu]] (cyclo([dTyr(3-I)][dNMeOrn]([4Abz-dA-dR-dDap-DOTA])R[2Nal]G)) ?
no
